Give CC50 at 72 h for every item shown.
assay: General cytotoxicity on HepG2 cells (CC50; therapeutic index CC50 HepG2/IC50 Mino)
Assay type: cell-based
test.conditions: human, HepG2 cells (hepatocellular carcinoma); Table 10; 72 hours, Alamar Blue; average of several tests
Procedure: The CC50 values were determined in the test for General cytotoxicity on HepG2 cells (hepatocellular carcinoma, ATCC® HB-8065™). […] Viability of the cells was assessed using Alamar Blue dye (Invitrogen, #DAL 1100). CC50 was determined similarly (table 10). […]
Give bare numbers, in µM.

Solved entries:
{"columns": ["compound.smiles", "measured"],
 "data": [
  ["CC#CC(=O)N1CCC[C@H]1Cn1nc(-c2ccc(Oc3ccncc3)cc2)c2cncc(Cl)c21", 47.6],
  ["C=CC(=O)N1CCC[C@@H](n2nc(-c3ccc(Oc4ccncc4C(N)=O)cc3)c3cncc(Cl)c32)C1", 61.9]
]}

Kindly give each listed record's CC50 at 72 h.
1. C=CC(=O)N1CCC[C@@H](n2nc(-c3ccc(C(=O)Nc4ncccc4F)cc3)c3c(N)ncc(Cl)c32)C1
2. C=CC(=O)N1CCC[C@@H](n2nc(-c3ccc(C(=O)Nc4cc(C(F)(F)CC)ccn4)cc3)c3c(N)ncc(Cl)c32)C1
3. C=CC(=O)N1CCC[C@@H](n2nc(-c3ccc(C(=O)Nc4ncccc4F)cc3)c3cncc(Cl)c32)C1
4. C=CC(=O)N1CCC[C@@H](n2nc(-c3ccc(C(=O)Nc4ccc(F)cn4)cc3)c3cncc(Cl)c32)C1

Ans.
1. 18.4
2. 9.08
3. 19
4. 28.1
